test system: A498; experiment: NCI tumour cell line growth inhibition, 48 h
Active and inactive are the calls of the source. Rule as the data show it: active = GI50 up to about 1.1 µM and inactive = higher.
endpoint.name: GI50

Value sought: GI50, system A498, item CCCCCCCSCC1OC(n2cnc3c(N)ncnc32)C(O)C1O (centres undefined) . Result: 14.2 µM (inactive)

Value sought: GI50, system A498, item "COc1ccc2c(c1)[n+]([O-])c(C(=O)CC(=O)C(=O)Nc1cccc(Cl)c1C)c(C)[n+]2[O-]" . Result: > 100 µM (inactive)

Value sought: GI50, system A498, item "CC(C)C(=O)CP(=O)(O)O" . Result: > 100 µM (inactive)

Value sought: GI50, system A498, item "CO/N=C(\C(=O)O/C(=N/C1CCCCC1)NC1CCCCC1)c1csc(NC(c2ccccc2)(c2ccccc2)c2ccccc2)n1" . Result: > 10 µM (inactive)

Continuing:
Value sought: GI50, system A498, item "O=c1cc2ccccc2nn1Cc1ccccc1Cl" . Result: > 100 µM (inactive)

Value sought: GI50, system A498, item Fc1cccc(F)c1C1SCc2nc3ccccc3n21 (centres undefined) . Result: > 100 µM (inactive)

Value sought: GI50, system A498, item "C=C1[C@@H]([C@@]2(C)C=CC(=O)C(C)(C)[C@@H]2CC(=O)OC)CC[C@@]2(C)[C@H](c3ccoc3)OC(=O)[C@H]3O[C@]132" . Result: 79.4 µM (inactive)

Value sought: GI50, system A498, item "CN1C/C(=C\c2ccc(C(=O)O)cc2)C(=O)/C(=C/c2ccc(C(=O)O)cc2)C1" . Result: > 100 µM (inactive)

Value sought: GI50, system A498, item "O=C(O)c1cc(O)nc(S)n1" . Result: > 100 µM (inactive)

Value sought: GI50, system A498, item "CC1=NN(c2nc(N)nc(CS(C)(=O)=O)n2)C(C)(C)C1" . Result: > 100 µM (inactive)

Value sought: GI50, system A498, item "CN(C)CCNS(=O)(=O)c1ccc(N)cc1" . Result: > 100 µM (inactive)

Value sought: GI50, system A498, item "Cc1cc(C)nc(NS(=O)(=O)c2ccc(NC(=O)c3cccc4c(Nc5ccc(S(N)(=O)=O)cc5)c5ccccc5nc34)cc2)n1" . Result: > 94.2 µM (inactive)

Value sought: GI50, system A498, item "O=C1c2ccccc2CCCCCCCCCCC12OCCCO2" . Result: 32.1 µM (inactive)

Value sought: GI50, system A498, item "CCOP(=O)(OCC)/C(C#N)=C/c1ccco1" . Result: > 100 µM (inactive)

Value sought: GI50, system A498, item "O=C1c2ccccc2C(Br)(Br)c2ccccc21" . Result: > 10 µM (inactive)

----------
system: SW-620; assay: NCI tumour cell line growth inhibition, 48 h
Activity calls are given as the source filed them. Rule as the data show it: active = GI50 up to about 1.1 µM and inactive = higher.
Form entry, call: pick from true (active), false (inactive)

The examples below pair each entry with its known result.
Data request: What call does the record list for COc1cccc(C2c3cc4c(cc3OC(C)(O)C2C)OCO4)c1O (stereo not given) ?
Data returned: false

Data request: What call does the record list for Cc1nnc(N)nc1C/C=C/C(Sc1ccc(Cl)cc1)c1ccccc1 (stereo not given) ?
Data returned: false

Data request: What call does the record list for "N=C(N)NS(=O)(=O)c1ccc(NNc2c3ccccc3nc3c(C(=O)Nc4ccc(S(N)(=O)=O)cc4)cccc23)cc1" ?
Data returned: false

Data request: What call does the record list for "CC(C)NC(=O)CCN(C(=O)O)S(=O)(=O)c1ccc(NC(=O)c2ccccc2)cc1" ?
Data returned: false

Data request: What call does the record list for "O=C(CC(=O)c1ccccc1)CC(O)(c1ccccc1)c1ccccc1" ?
Data returned: false

Data request: What call does the record list for CC(=O)N1CN2C(=O)CCC2c2cc(C)ccc21 (stereo not given) ?
Data returned: false

Data request: What call does the record list for O=[N+]([O-])c1ccc(C(O)(C#CCN2CCCC2)c2ccccc2)cc1 (stereo not given) ?
Data returned: false

Data request: What call does the record list for N#Cc1nn(C2OC(COC(=O)c3ccccc3)C(OC(=O)c3ccccc3)C2OC(=O)c2ccccc2)c2nc[nH]c(=O)c12 (stereo not given) ?
Data returned: false

Continuing:
Data request: What call does the record list for COC(=O)C1(F)C(=O)NC(=O)NC1OC (stereo not given) ?
Data returned: false

Data request: What call does the record list for "CCOC(=O)C1(C(=O)OCC)[C@@H](c2ccccc2)C2=NO[C@@H]3CCC[C@H]1[C@H]23" ?
Data returned: false

Data request: What call does the record list for CCCC(=O)OCC1OC(n2ccc(N)nc2=O)C(OC(=O)CCC)C1OC(=O)CCC (stereo not given) ?
Data returned: false

Data request: What call does the record list for "C/C1=C/C[C@@H](/C(C)=C/c2csc(C)n2)OC(=O)C[C@H](O)C(C)(C)C(=O)[C@H](C)[C@@H](O)[C@@H](C)CCC1" ?
Data returned: true

Data request: What call does the record list for COc1cc([C@@H]2c3cc4c(cc3C[C@@H]3COC(=O)C32)OCO4)cc(OC)c1O (stereo not given in full) ?
Data returned: true

Data request: What call does the record list for "CC1=C(C(=O)NCCc2ccccc2)CC(C(=O)NCCc2ccccc2)=C(C)N1" ?
Data returned: false

Data request: What call does the record list for "CC1(C)C(=O)/C=C\C(=O)C(C)(C)C(=O)/C=C\C(=O)C(C)(C)C(=O)/C=C\C(=O)C(C)(C)C(=O)/C=C\C1=O" ?
Data returned: false

Data request: What call does the record list for "Sc1nc(S)nc(Oc2ccc(Cl)c(Cl)c2)n1" ?
Data returned: false

Data request: What call does the record list for CC(=O)Nc1ccc(C(=O)NN2C(=O)C(Cl)C2c2cc(Br)ccc2O)cc1 (stereo not given) ?
Data returned: false

Data request: What call does the record list for "COc1cc2ccc(C(=O)NCCCNC(=O)c3ccc4cc(OC)c(OC)cc4c3)cc2cc1OC" ?
Data returned: false

Data request: What call does the record list for CC1(C)O[C@H]2OC(CO)C(N=[N+]=[N-])[C@H]2O1 (stereo not given in full) ?
Data returned: false

Data request: What call does the record list for "NS(=O)(=O)c1ccc(/C=C/c2cccc(O)c2)cc1" ?
Data returned: false

Source: ChEMBL document CHEMBL1201862
